Data origin, for the record: PubChem BioAssay (NCATS)

Assay: Quantitative highthroughput screen to assess conditional lethalithy of SEM cells grown in RPMI1640 with dialyzed fetal bovine serum (RPMI+ds) (AID 1963884); note: nearly all actives have a fitted effect of over 35% in size; note: potency is the fitted concentration of half-maximal effect;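 for viability: 100% = DMSO control wells and 0% = empty wells without cells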
Conditions: SEM B-ALL cells, RPMI+dialyzed FBS, CellTiter-Glo viability, 48 h; series mostly up to 45.8 µM
Records with an inconclusive call do not appear. The source made the active and inactive calls. Calls come from the whole dose curve; as a rule, active = well fitted cell-killing curve with a large enough effect; inconclusive = small, poorly fitted or top-dose-only effect, or effect the other way; inactive = no such curve, though single readings can be large or run the other way.

{"MOLECULE": "COC(=O)C=CC(=O)OC", "Potency": "2640 nM (active)"}
{"MOLECULE": "CC(C)c1ccc2c(c1)c(SC(C)(C)C)c(CC(C)(C)C(=O)O)n2Cc1ccc(Cl)cc1", "Potency": "inactive"}
{"MOLECULE": "O=c1ccn([C@@H]2O[C@H](CO)[C@H](O)[C@H]2O)c(=O)[nH]1", "Potency": "inactive"}
{"MOLECULE": "O=C1C(Cl)=C(NCCN2CCOCC2)C(=O)c2ncccc21", "Potency": "7430 nM (active)"}
{"MOLECULE": "OC(CCN1CCCCC1)(c1ccccc1)C1CC2C=CC1C2 (stereo unspecified)", "Potency": "inactive"}
{"MOLECULE": "Cc1ccc(C(=O)Nc2ccc(Oc3cc4cnn(C)c4cc3-c3cn[nH]c3)c(F)c2)c(=O)n1-c1ccc(F)cc1", "Potency": "234 nM (active)"}
{"MOLECULE": "CCN[C@H]1C[C@H](C)S(=O)(=O)c2sc(S(N)(=O)=O)cc21", "Potency": "inactive"}
{"MOLECULE": "CN1CCN(c2c(F)cc3c(=O)c(C(=O)O)cn(CCF)c3c2F)CC1", "Potency": "inactive"}
{"MOLECULE": "CCCS(=O)(=O)Nc1ccc(F)c(C(=O)c2c[nH]c3ncc(-c4ccc(Cl)cc4)cc23)c1F", "Potency": "inactive"}
{"MOLECULE": "COc1ccccc1N1CCN(CCN(C(=O)C2CCCCC2)c2ccccn2)CC1", "Potency": "inactive"}
{"MOLECULE": "CC[C@H](NC(C)C)[C@H](O)c1ccc(O)c2[nH]c(=O)ccc12", "Potency": "inactive"}
{"MOLECULE": "Cc1ccccc1C(=O)Nc1ccc(C(=O)N2CCCC(O)c3cc(Cl)ccc32)c(C)c1 (stereo unspecified)", "Potency": "inactive"}
{"MOLECULE": "O=P(O)(O)C(O)(Cn1ccnc1)P(=O)(O)O", "Potency": "inactive"}
{"MOLECULE": "COc1cc(O)c2c(c1)C(=O)c1cc(C)cc(O)c1C2=O", "Potency": "5120 nM (active)"}
{"MOLECULE": "COc1ccc(-c2oc3c(CC=C(C)C)c(OC4O[C@H](CO)[C@@H](O)[C@H](O)[C@@H]4O)cc(O)c3c(=O)c2OC2O[C@@H](C)[C@H](O)[C@@H](O)[C@@H]2O)cc1 (stereo partly specified)", "Potency": "18700 nM (active)"}
{"MOLECULE": "CN1c2cc(O)c(N=NC(N)=O)cc2CC1S(=O)(=O)O (stereo unspecified)", "Potency": "inactive"}
{"MOLECULE": "NCCCC(N)(C(=O)O)C(F)F (stereo unspecified)", "Potency": "inactive"}
{"MOLECULE": "CN1C(C(=O)Nc2ccccn2)=C(O)c2sccc2S1(=O)=O", "Potency": "inactive"}
{"MOLECULE": "COc1ccc(C[C@@H](C)[C@@H](C)Cc2ccc(OC)c(OC)c2)cc1OC", "Potency": "2640 nM (active)"}
{"MOLECULE": "CCCCCCCCCCCCCCCC(=O)O[C@H]1[C@@H](O)[C@@H](O)[C@@H]([C@H](NC(=O)[C@@H]2C[C@@H](CCC)CN2C)[C@H](C)Cl)O[C@@H]1SC", "Potency": "inactive"}
{"MOLECULE": "C[C@H]1C[C@H]2[C@@H]3CCC4=CC(=O)C=C[C@]4(C)[C@@H]3C(=O)C[C@]2(C)[C@@]1(O)C(=O)CO", "Potency": "23500 nM (active)"}
{"MOLECULE": "Cn1c2ccccc2c2c3c(c4c5ccccc5n(CCC#N)c4c21)CNC3=O", "Potency": "418 nM (active)"}
{"MOLECULE": "O=C(Nc1cccc(Cl)c1)Nc1ncc(CCNc2ncnc3ccsc23)s1", "Potency": "209 nM (active)"}
{"MOLECULE": "CNC(=O)c1ccc(Nc2ncc(C(F)(F)F)c(NCc3nccnc3N(C)S(C)(=O)=O)n2)cc1", "Potency": "933 nM (active)"}
{"MOLECULE": "CCCCCCCCCCCCc1ccc(S(=O)(=O)Nc2nncs2)cc1", "Potency": "6620 nM (active)"}
{"MOLECULE": "O=C(c1cncc(Br)c1)N1CCC(N2CCCC2)CC1", "Potency": "inactive"}

* * *

Assay: Cellular viability qHTS for adrenocortical cancer (ACC) cell line NCI-H295R (AID 1963990); note: nearly all actives have a fitted effect of over 60% in size
Settings: CellTiter-Glo ATP luminescence, 48 h; series mostly up to 46.1 µM
Results filed as inconclusive are left out. The source made the active and inactive calls. Calls follow the shape of the dose curve; as a rule, active = well fitted cell-killing curve with a large enough effect; inconclusive = small, poorly fitted or top-dose-only effect; inactive = flat fitted curve, though single readings scatter.
Possible outcomes: class 1 = active, class 0 = inactive

{"COMPOUND": "O=C(NCCN1CCOCC1)c1ccc(Cl)cc1", "ASSIGNED LABEL": "class 0"}
{"COMPOUND": "CCCCOc1cc(C(=O)OCCN(CC)CC)ccc1N", "ASSIGNED LABEL": "class 0"}
{"COMPOUND": "CC(=O)c1c(C)c2cnc(Nc3ccc(N4CCNCC4)cn3)nc2n(C2CCCC2)c1=O", "ASSIGNED LABEL": "class 1"}
{"COMPOUND": "CCCc1c2oc(C(=O)O)cc(=O)c2cc2c(=O)cc(C(=O)O)n(CC)c12", "ASSIGNED LABEL": "class 0"}
{"COMPOUND": "CCCCCCCN(CC)CCCC(O)c1ccc(NS(C)(=O)=O)cc1 (configuration not stated)", "ASSIGNED LABEL": "class 0"}
{"COMPOUND": "CN(C)CCOC1=Cc2ccccc2Sc2ccc(Cl)cc21", "ASSIGNED LABEL": "class 1"}
{"COMPOUND": "Cl/C(=C\\n1cncn1)c1ccc(Cl)cc1Cl", "ASSIGNED LABEL": "class 0"}
{"COMPOUND": "C[C@H]1O[C@@H](O[C@H]2CC[C@@]3(C)[C@H](CC[C@@H]4[C@@H]3C[C@@H](O)[C@]3(C)[C@@H](C5=CC(=O)OC5)CC[C@]43O)C2)C[C@H](O)[C@@H]1O[C@H]1C[C@H](O)[C@H](O[C@H]2C[C@H](O)[C@H](O[C@@H]3O[C@H](CO)[C@@H](O)[C@H](O)[C@H]3O)[C@@H](C)O2)[C@@H](C)O1", "ASSIGNED LABEL": "class 1"}
{"COMPOUND": "CC(C)CCCC(C)N (configuration not stated)", "ASSIGNED LABEL": "class 0"}
{"COMPOUND": "O=C(Nc1ccc(C(=O)O)c(O)c1)c1ccccc1", "ASSIGNED LABEL": "class 0"}
{"COMPOUND": "CCCCCCCCc1ccc(CCC(N)(CO)CO)cc1", "ASSIGNED LABEL": "class 1"}
{"COMPOUND": "NS(=O)(=O)c1cc2c(cc1C(F)(F)F)NCNS2(=O)=O", "ASSIGNED LABEL": "class 0"}

* * *

Assay: Quantitative highthroughput screen to assess conditional lethalithy of P12 Ichikawa cells grown in RPMI1640 with untreated serum (RPMI+s) (AID 1963881); note: nearly all actives have a fitted effect of over 35% in size;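 for viability: 100% = DMSO wells and 0% = empty wells without cells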
Conditions: ATP luminescence, 48 h; viability; series mostly up to 45.8 µM
Records with an inconclusive call do not appear. Activity calls are given as the source filed them. Calls follow the shape of the dose curve; as a rule, active = well fitted cell-killing curve with a large enough effect; inconclusive = small, poorly fitted or top-dose-only effect; inactive = flat fitted curve, though single readings scatter.
Possible outcomes: active, inactive

{"MOLECULE": "O=Nc1c(-c2c(O)[nH]c3cc(Br)ccc23)[nH]c2ccccc12", "ASSIGNED LABEL": "active"}
{"MOLECULE": "CN(C1CCc2c(c3ccccc3n2CC(=O)O)C1)S(=O)(=O)c1ccc(F)cc1 (stereo not given)", "ASSIGNED LABEL": "active"}
{"MOLECULE": "O=C(NCCS(=O)(=O)c1ccc(C(F)(F)F)cn1)c1ccc(Cl)cc1", "ASSIGNED LABEL": "inactive"}
{"MOLECULE": "Cc1onc(-c2ccccc2)c1C(=O)N[C@@H]1C(=O)N2[C@@H](C(=O)O)C(C)(C)S[C@@H]12", "ASSIGNED LABEL": "active"}
{"MOLECULE": "CCC(C)N(C)C(=O)c1cc2ccccc2c(-c2ccccc2Cl)n1 (stereo not given)", "ASSIGNED LABEL": "inactive"}
{"MOLECULE": "CC(=O)CC(c1ccccc1)c1c(O)c2ccccc2oc1=O (stereo not given)", "ASSIGNED LABEL": "inactive"}
{"MOLECULE": "COc1cc2nc(-c3ccc(N4CCN(C)CC4)cc3)nc(NCCN3CCOCC3)c2cc1OC", "ASSIGNED LABEL": "active"}
{"MOLECULE": "CCCCN(CCCC)CC(O)c1cc(Cl)cc2c1-c1ccc(Cl)cc1C2=Cc1ccc(Cl)cc1 (stereo not given)", "ASSIGNED LABEL": "inactive"}
{"MOLECULE": "c1cc(-c2sc(-c3ccncc3)c(-c3ccncc3)c2-c2ccncc2)ccn1", "ASSIGNED LABEL": "inactive"}
{"MOLECULE": "Cc1nc2c(-c3cnc(N)nc3)nc(N3CCOCC3)nc2n1C(C)C", "ASSIGNED LABEL": "active"}
